// provenance: patent US20210363269A1

Can you tell me koff for the items I'm about to list?
# experimental system: T1, mouse 129 SIRP-α D1 domain (mouse (129 strain), UniProt P97797 32-150)
# T1 construct: also called m129
# T1 chain: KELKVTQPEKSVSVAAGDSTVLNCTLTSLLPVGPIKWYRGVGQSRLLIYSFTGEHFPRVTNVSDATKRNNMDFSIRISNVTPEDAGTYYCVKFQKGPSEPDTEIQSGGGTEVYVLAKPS
# experimental protocol: SPR, Langmuir fit
One number for each entry, in s⁻¹.

In: Dear colleague, I am looking for the recorded koff of the following binder: S25 (scFv, V domains shown, also called clone 25; scFv-Fc form of AB25) VH: DVQLVESGGGVVRPGESLRLSCEASGFTFSSNAMSWVRQAPGKGLEWVAGISSGSDTYYGDSVKGRLTISRDNSKNILYLQMNSLTAEDTAVYYCARETWNHLFDYWGLGTLVTVSS VL: ALTQPASVSANPGETVEITCSGGSYSSYYYAWYQQKSPGSAPVTLIYSDDKRPSNIPSRFSGSASGSTATLTITGVRAEDEAVYFCGGYDQSSYTNPFGAGTTLTVL
Out: 0.000133

Now take the following binder into account.
In: Dear colleague, I am looking for the recorded koff of the following binder: S73 (scFv, V domains shown, also called clone 73) VH: DVQLVESGGGVVRPGESLRLSCEASGFTFSSNAMSWARQAPGKGLEWVAGISSGSDTYYGDSVKGRLTISRDNSKNILYLQMNSLTAEDTAVYYCARETWNHLFDYWGLGTLVTVSS VL: ALTQPASVSANPGETVKITCSGGIYSSYYYAWYQQKSPGSAPVTLIYSDDKRPSNIPSRFSGSASGSTATLTITGVRAEDEAVYFCGGYDQSSYTNPFGAGTTLTVL
Out: 0.000164
